- EXPERIMENTAL_SYSTEM: Anti-CD28 Fab (SEQ ID NOs: 696, 697)
- Sequence (VH, as listed by the source, chain 1 of 2): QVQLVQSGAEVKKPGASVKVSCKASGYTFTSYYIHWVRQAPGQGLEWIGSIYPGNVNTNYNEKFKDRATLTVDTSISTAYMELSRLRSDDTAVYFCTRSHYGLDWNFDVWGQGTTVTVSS
- Sequence (VL, as listed by the source, chain 2 of 2): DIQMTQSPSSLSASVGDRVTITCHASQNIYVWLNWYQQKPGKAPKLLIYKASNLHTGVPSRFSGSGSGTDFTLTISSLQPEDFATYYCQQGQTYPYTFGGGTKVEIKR
- MEASUREMENT_NOTES: phage ELISA; biotinylated anti-CD28 Fab on neutravidin plate, clonal phage supernatant, anti-M13 HRP detection;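 also: crude supernatants of single phage clones picked after panning were screened for binding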
PARAMETER_MEASURED: Anti-CD28 Fab signal (phage binding ELISA)
Format: numeric value only, no unit, no commentary.

State the recorded Anti-CD28 Fab signal (phage binding ELISA) for this entry: YCDGHAPQYMRKCL (Tested as clonal phage supernatant) [Phage-1101]
1.33

State the recorded Anti-CD28 Fab signal (phage binding ELISA) for this entry: YCDGHSEAYIEKCL (Tested as clonal phage supernatant) [Phage-1098]
1.34

State the recorded Anti-CD28 Fab signal (phage binding ELISA) for this entry: YCDGHLPRYMAKCL (Tested as clonal phage supernatant) [Phage-1092]
1.35

State the recorded Anti-CD28 Fab signal (phage binding ELISA) for this entry: YCDGHLLQYMHKCL (Tested as clonal phage supernatant) [Phage-1094]
1.35

State the recorded Anti-CD28 Fab signal (phage binding ELISA) for this entry: YCAGHASEYMAKCL (Tested as clonal phage supernatant) [Phage-1100]
1.33
